All figures here come from the supplement of paper PMC10567573.

B1: TMEM106C (parent)
chain: SEQLVNFTGKAEMGGPFSYVYFFC

- Variants of: B1
- procedure_summary: protein stability index of a GFP-peptide fusion (GPS, HEK-293T) (PSI 1-6); higher = more stable;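 further: lentivirally expressed fusions sorted by FACS into six bins by GFP to DsRed ratio, PSI derived from sequencing read proportions per bin multiplied by bin number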
- recorded_conditions: c terminus: a fixed tail appended
attribute_measured: protein stability index
Just the number.

QUERY: So what does the record say about protein stability index for `F23N` ?
RESULT: 1.35

QUERY: So what does the record say about protein stability index for `E2D` ?
RESULT: 3.75

QUERY: So what does the record say about protein stability index for `Y21F` ?
RESULT: 3.1

QUERY: So what does the record say about protein stability index for `V20D` ?
RESULT: 1.76

QUERY: So what does the record say about protein stability index for `G9Y` ?
RESULT: 3.05

QUERY: So what does the record say about protein stability index for `G15Y` ?
RESULT: 2.89

QUERY: So what does the record say about protein stability index for `E12I` ?
RESULT: 2.98

QUERY: So what does the record say about protein stability index for `K10R` ?
RESULT: 2.99

QUERY: So what does the record say about protein stability index for `Y19Q` ?
RESULT: 2.12

QUERY: So what does the record say about protein stability index for `L4N` ?
RESULT: 3.12

QUERY: So what does the record say about protein stability index for `E12C` ?
RESULT: 2.67
